Biological target: TDO (Homo sapiens)
Sequence (P48775 whole entry): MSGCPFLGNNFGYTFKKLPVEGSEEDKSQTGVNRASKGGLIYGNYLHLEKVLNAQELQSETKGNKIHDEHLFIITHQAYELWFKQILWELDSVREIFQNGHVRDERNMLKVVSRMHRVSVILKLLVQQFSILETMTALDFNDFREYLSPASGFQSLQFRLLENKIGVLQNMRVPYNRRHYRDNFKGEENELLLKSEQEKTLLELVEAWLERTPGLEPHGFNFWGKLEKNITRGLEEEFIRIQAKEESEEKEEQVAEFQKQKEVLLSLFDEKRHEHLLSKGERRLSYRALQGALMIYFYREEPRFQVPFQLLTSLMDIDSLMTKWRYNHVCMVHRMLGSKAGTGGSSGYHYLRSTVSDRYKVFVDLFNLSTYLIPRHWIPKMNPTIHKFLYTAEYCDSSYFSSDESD
Test: A172 kynurenine cell-based assay
Parameters: This assay utilised cancer cells which expressed either TDO or IDO; endogenous in cells; host or cells: A172 (human glioblastoma)
Conditions: A172 human glioblastoma cells, 48 hours; read-out: A172 Kynurenine cell based assay pIC50 (converted)
Listed here are compounds together with their documented IC50.

{"Compound": "OC1(c2cc(Cl)cc3[nH]ncc23)CCCCC1 [Compound 273, 1-(6-chloro-1H-indazol-4-yl)cyclohexanol]", "IC50, nM": 13.5}
{"Compound": "O=C1N[C@H]2CC[C@@H]1CN(c1cc(Cl)cc3[nH]ncc13)C2 [Compound 393]", "IC50, nM": 55}
{"Compound": "CC(C)Cn1cc(-c2cc(Cl)cc3[nH]ncc23)cn1 [Compound 396]", "IC50, nM": 832}
{"Compound": "CS(=O)(=O)c1ccc(-c2cc(Cl)cc3[nH]ncc23)cc1 [Compound 192]", "IC50, nM": 24.5}
{"Compound": "CS(=O)(=O)N1CCC(c2cc(Cl)cc3[nH]ncc23)CC1 [Compound 40]", "IC50, nM": 83.2}
{"Compound": "CC1(C)CN(c2cc(Cl)cc3[nH]ncc23)CCN1S(C)(=O)=O [Compound 45]", "IC50, nM": 10}
{"Compound": "CS(=O)(=O)N1CCN(c2cc(Cl)cc3[nH]ncc23)CC1 [Compound 28]", "IC50, nM": 339}
{"Compound": "CC(=O)NC1CCC(c2cc(Cl)cc3[nH]ncc23)CC1 (mixture of isomers) [Compound 155]", "IC50, nM": 240}
{"Compound": "CC1(C)CN(c2cc(Cl)cc3[nH]ncc23)CCC12NC(=O)NC2=O (stereo not drawn) [Compound 424]", "IC50, nM": 75.9}

* * *

Target: IDO (Homo sapiens, UniProt P14902)
Sequence (P14902 whole entry): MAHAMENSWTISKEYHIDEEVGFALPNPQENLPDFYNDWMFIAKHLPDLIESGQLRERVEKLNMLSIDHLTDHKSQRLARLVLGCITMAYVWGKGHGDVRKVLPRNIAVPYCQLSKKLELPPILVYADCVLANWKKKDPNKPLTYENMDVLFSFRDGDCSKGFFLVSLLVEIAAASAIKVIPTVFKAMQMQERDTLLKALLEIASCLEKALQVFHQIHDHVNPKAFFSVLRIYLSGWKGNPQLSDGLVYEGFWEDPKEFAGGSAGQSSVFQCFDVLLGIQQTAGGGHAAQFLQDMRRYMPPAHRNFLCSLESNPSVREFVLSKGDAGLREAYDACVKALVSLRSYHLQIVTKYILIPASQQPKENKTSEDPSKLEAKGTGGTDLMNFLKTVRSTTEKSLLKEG
Experiment: SKOV3 kynurenine cell-based assay (IDO induced by IFN-γ)
Design: IDO expression was induced in the SKOV3 cells by the addition of 500 ng/ml IFN-γ; endogenous in cells; host or cells: SKOV3 (human ovarian adenocarcinoma), induced with IFN-γ
Details: SKOV3 human ovarian adenocarcinoma cells, 500 ng/ml IFN-γ, 48 hours, 500 μM L-tryptophan; read-out: SKOV3 Kynurenine cell based assay pIC50 (converted)

{"Compound": "CN(C)C(=O)C1CCCN(c2cc(Cl)cc3[nH]ncc23)C1 (stereo not shown)", "IC50": "32.4 to 100 µM"}
{"Compound": "Cc1cc(S(C)(=O)=O)ccc1-c1cc(Cl)cc2[nH]ncc12", "IC50": "3.24 to 31.6 µM"}
{"Compound": "O=C1CCC2(CCN(c3cc(Cl)cc4[nH]ncc34)CC2)N1", "IC50": "3.24 to 31.6 µM"}
{"Compound": "CS(=O)(=O)N1CCN(c2cc(C(F)(F)F)cc3[nH]ncc23)C2CCCCC21 (single isomer, unassigned) [Compound 415]", "IC50": "> 100 µM"}
{"Compound": "NS(=O)(=O)N1CCN(c2cc(Cl)cc3[nH]ncc23)CC1", "IC50": "3.24 to 31.6 µM"}
{"Compound": "CC1(C)CN(c2cc(C#N)cc3[nH]ncc23)CCN1S(C)(=O)=O", "IC50": "3.24 to 31.6 µM"}
{"Compound": "CC(=O)NCC1(C)CN(c2cc(Cl)cc3[nH]ncc23)C1", "IC50": "< 3.16 µM"}
{"Compound": "OCCOc1cc(Cl)cc2[nH]ncc12", "IC50": "32.4 to 100 µM"}
{"Compound": "CS(=O)(=O)N1CC2CC1CN2c1cc(Cl)cc2[nH]ncc12 (stereo not shown)", "IC50": "32.4 to 100 µM"}
{"Compound": "CC(C)NC(=O)c1cc(Cl)cc2[nH]ncc12", "IC50": "32.4 to 100 µM"}
{"Compound": "CS(=O)(=O)N1CCC(F)(c2cc(Cl)cc3[nH]ncc23)CC1", "IC50": "3.24 to 31.6 µM"}
{"Compound": "CS(=O)(=O)N1CCC(c2cc(C(F)(F)F)cc3[nH]ncc23)CC1", "IC50": "3.24 to 31.6 µM"}
{"Compound": "CC(C)N1C(=O)NC2(CCN(c3cc(Cl)cc4[nH]ncc34)CC2)C1=O", "IC50": "3.24 to 31.6 µM"}
{"Compound": "CN(CC1CCCN(c2cc(Cl)cc3[nH]ncc23)C1)S(C)(=O)=O (stereo not shown)", "IC50": "32.4 to 100 µM"}
{"Compound": "O=S(=O)(Cc1ccccc1)N1CCC(c2cc(Cl)cc3[nH]ncc23)CC1", "IC50": "3.24 to 31.6 µM"}
{"Compound": "CCNC(=O)c1cc(Cl)cc2[nH]ncc12", "IC50": "> 100 µM"}
{"Compound": "CN(C)C(=O)CC1CCN(c2cc(Cl)cc3[nH]ncc23)CC1", "IC50": "3.24 to 31.6 µM"}
{"Compound": "Clc1cc(N2CCCCC2)c2cn[nH]c2c1", "IC50": "> 100 µM"}
{"Compound": "Clc1cc(N2C[C@H]3CC[C@@H](C2)NC3)c2cn[nH]c2c1", "IC50": "> 100 µM"}
{"Compound": "CNC(=O)N1CCC(c2cc(Cl)cc3[nH]ncc23)CC1", "IC50": "3.24 to 31.6 µM"}
{"Compound": "CN(C)C(=O)CN1CCN(c2cc(Cl)cc3[nH]ncc23)CC1", "IC50": "32.4 to 100 µM"}
{"Compound": "Clc1cc(N2CCC(c3cscn3)CC2)c2cn[nH]c2c1", "IC50": "> 100 µM"}
{"Compound": "CC(=O)N1CCC(Oc2cccc3[nH]ncc23)CC1", "IC50": "< 3.16 µM"}
{"Compound": "O=C1NC2(CCN(c3cc(Cl)cc4[nH]ncc34)CC2)C(=O)N1CCO", "IC50": "< 3.16 µM"}
{"Compound": "O=C1NC(=O)C2(CCN(c3cc(C(F)(F)F)cc4[nH]ncc34)CC2)N1", "IC50": "< 3.16 µM"}
{"Compound": "Cc1ccc(C2CCN(S(C)(=O)=O)CC2)c2cn[nH]c12", "IC50": "32.4 to 100 µM"}
{"Compound": "O=S(=O)(c1ccccc1)N1CCC(c2cc(Cl)cc3[nH]ncc23)CC1", "IC50": "3.24 to 31.6 µM"}
{"Compound": "CC(=O)N1CCN(c2cc(C3CCCC3)cc3[nH]ncc23)CC1", "IC50": "> 100 µM"}
{"Compound": "O=C1CCC2(CCN1)CCN(c1cc(Cl)cc3[nH]ncc13)CC2", "IC50": "< 3.16 µM"}
{"Compound": "CN(C)S(=O)(=O)c1ccc(-c2cc(Cl)cc3[nH]ncc23)cc1", "IC50": "3.24 to 31.6 µM"}
{"Compound": "CS(=O)(=O)N1CCN(c2cc(Cl)cc3[nH]ncc23)c2ccccc21", "IC50": "3.24 to 31.6 µM"}
{"Compound": "CS(=O)(=O)NC1CCC(c2cc(Cl)cc3[nH]ncc23)CC1 (stereo not shown)", "IC50": "3.24 to 31.6 µM"}
{"Compound": "CC(=O)N1CCN(c2cc(Cl)cc3[nH]ncc23)CC12CC2", "IC50": "3.24 to 31.6 µM"}
{"Compound": "C[C@@H]1CN(c2cc(Cl)cc3[nH]ncc23)C[C@H](C)N1S(C)(=O)=O", "IC50": "< 3.16 µM"}
{"Compound": "CC(C)CN1C(=O)NC2(CCN(c3cc(Cl)cc4[nH]ncc34)CC2)C1=O", "IC50": "< 3.16 µM"}
{"Compound": "CC(=O)N1CCC(c2cc(C(C)C)cc3[nH]ncc23)CC1", "IC50": "32.4 to 100 µM"}
{"Compound": "CS(=O)(=O)c1ccc(-c2cc(Cl)cc3[nH]ncc23)cc1F", "IC50": "3.24 to 31.6 µM"}
